# tgt: HsLysRS (Homo sapiens, UniProt Q15046)
# Construct: HsLysRS (70–581) was constructed in the vector pET20b with a C-terminal 6×His tag; 6xHis (C); made in house; host or cells: E. coli (pET20b; 'purified similarly' to PfLysRS, which was expressed in BL21 (DE3))
# Sequence (Q15046 70-581): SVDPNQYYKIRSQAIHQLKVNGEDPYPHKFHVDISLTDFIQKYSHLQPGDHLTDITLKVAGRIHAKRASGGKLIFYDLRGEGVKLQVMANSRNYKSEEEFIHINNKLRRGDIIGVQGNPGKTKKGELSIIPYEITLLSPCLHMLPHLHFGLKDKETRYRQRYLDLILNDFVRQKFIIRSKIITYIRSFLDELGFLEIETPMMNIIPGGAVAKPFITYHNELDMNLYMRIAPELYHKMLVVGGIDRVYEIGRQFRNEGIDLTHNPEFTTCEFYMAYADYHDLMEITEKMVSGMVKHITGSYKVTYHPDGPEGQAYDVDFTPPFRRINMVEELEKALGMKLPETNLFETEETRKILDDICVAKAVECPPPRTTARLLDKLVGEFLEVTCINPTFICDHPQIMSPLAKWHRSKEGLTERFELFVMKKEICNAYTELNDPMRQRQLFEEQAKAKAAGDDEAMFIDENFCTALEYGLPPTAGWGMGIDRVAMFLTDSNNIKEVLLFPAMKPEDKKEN
# protocol description: ATP hydrolysis assay (Kinase-Glo) on HsLysRS
# Format: biochemical
# condition details: HsLysRS, source data; read-out: IC50 (best-fit value)
In this section we review reported IC50 values for a set of compounds.

compound: COc1ccc(OC)c(Nc2ncnc(Nc3ccccc3S(=O)(=O)C(C)C)n2)c1
IC50: 181 µM
--
compound: COc1ccccc1Nc1ncnc(Nc2ccccc2S(=O)(=O)C(C)C)n1
IC50: 299 µM
--
compound: COc1ncccc1Nc1ncnc(Nc2ccccc2S(=O)(=O)C(C)C)n1 [Compound 38a]
IC50: 83.7 µM

---

# tgt: PfLysRS (Plasmodium falciparum, UniProt Q8IDJ8)
# Construct: PfLysRS (77–583) was constructed in the vector pET20b, with a C-terminal 6×His tag; 6xHis (C); made in house; host or cells: E. coli BL21 (DE3)
# Sequence (Q8IDJ8 entry or part of it): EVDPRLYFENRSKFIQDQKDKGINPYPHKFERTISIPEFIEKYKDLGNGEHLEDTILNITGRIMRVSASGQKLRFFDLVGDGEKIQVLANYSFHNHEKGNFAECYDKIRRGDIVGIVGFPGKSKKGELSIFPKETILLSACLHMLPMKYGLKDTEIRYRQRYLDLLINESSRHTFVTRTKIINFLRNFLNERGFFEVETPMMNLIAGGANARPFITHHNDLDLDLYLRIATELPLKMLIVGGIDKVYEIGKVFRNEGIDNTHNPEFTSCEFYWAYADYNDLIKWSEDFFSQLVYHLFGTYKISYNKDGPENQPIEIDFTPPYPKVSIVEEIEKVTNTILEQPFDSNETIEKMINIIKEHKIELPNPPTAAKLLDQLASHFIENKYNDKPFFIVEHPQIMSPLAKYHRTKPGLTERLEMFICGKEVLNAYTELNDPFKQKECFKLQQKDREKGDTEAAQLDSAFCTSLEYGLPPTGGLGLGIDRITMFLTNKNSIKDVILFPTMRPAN
# protocol description: Thermal shift assay
# Assay type: binding
# condition details: in the presence of L-lysine
The threshold is 2 °C. Values of ΔTm of PfLysRS beneath it are tagged 1; values meeting or exceeding it are tagged -1.

molecule: COc1ccc(OC(F)(F)F)cc1Nc1ncnc(Nc2ccccc2S(=O)(=O)C(C)C)n1 [Compound 42]
answer label: 1
//
molecule: CC(C)S(=O)(=O)c1ccccc1Nc1ncnc(Nc2ccccc2S(=O)(=O)C(C)C)n1 [Compound 37]
answer label: 1
//
molecule: COc1ccc(Nc2ncnc(Nc3ccccc3S(=O)(=O)C(C)C)n2)c(OC)c1 [Compound 35]
answer label: -1
//
molecule: COc1cc(N2CCC(N3CCN(C)CC3)CC2)ccc1Nc1ncnc(Nc2ccccc2C2CCCCC2)n1 [Compound 32]
answer label: -1
//
molecule: COc1ccc(C)cc1Nc1ncnc(Nc2ccccc2S(=O)(=O)C(C)C)n1 [Compound 39]
answer label: -1
//
molecule: COc1ccc(OC)c(Nc2cncc(Nc3ccccc3S(=O)(=O)C(C)C)n2)c1 [Compound 36c]
answer label: 1
//
molecule: COc1ccc(OC)c(Nc2nccc(Nc3ccccc3S(=O)(=O)C(C)C)n2)c1 [Compound 36f]
answer label: -1
//
molecule: COc1ccc(F)cc1Nc1ncnc(Nc2ccccc2S(=O)(=O)C(C)C)n1 [Compound 41]
answer label: 1
//
molecule: COc1ccc(OC)c(Nc2cccc(Nc3ccccc3S(=O)(=O)C(C)C)n2)c1 [Compound 36b]
answer label: 1
//
molecule: COc1ccc([N+](=O)[O-])cc1Nc1ncnc(Nc2ccccc2S(=O)(=O)C(C)C)n1 [Compound 40]
answer label: -1
//
molecule: COc1ccc(OC)c(Nc2cc(Nc3ccccc3S(=O)(=O)C(C)C)ncn2)c1 [Compound 36e]
answer label: -1
//
molecule: COc1ccc(C(F)(F)F)cc1Nc1ncnc(Nc2ccccc2S(=O)(=O)C(C)C)n1 [Compound 33]
answer label: 1
//
molecule: COc1ccc(OC)c(Nc2cccc(Nc3ccccc3S(=O)(=O)C(C)C)c2)c1 [Compound 36d]
answer label: 1

---

In this section we review reported LogIC50 (best-fit value) values for a set of molecules.
# tgt: PfLysRS (Plasmodium falciparum)
# Construct: PfLysRS (77–583) was constructed in the vector pET20b, with a C-terminal 6×His tag; 6xHis (C); made in house; host or cells: E. coli BL21 (DE3)
# protocol description: ATP hydrolysis assay (Kinase-Glo) on PfLysRS
# Format: biochemical
# condition details: PfLysRS, log of nM

molecule: COc1ccc(OC)c(Nc2ncnc(Nc3ccccc3S(=O)(=O)C(C)C)n2)c1
tgt: PfLysRS (Plasmodium falciparum)
LogIC50 (best-fit value): 2.296

molecule: COc1ccccc1Nc1ncnc(Nc2ccccc2S(=O)(=O)C(C)C)n1
tgt: PfLysRS (Plasmodium falciparum)
LogIC50 (best-fit value): 2.959

molecule: COc1ncccc1Nc1ncnc(Nc2ccccc2S(=O)(=O)C(C)C)n1 [Compound 38a]
tgt: PfLysRS (Plasmodium falciparum)
LogIC50 (best-fit value): 2.755

molecule: COc1ccc(OC)c(Nc2ncnc(Nc3ccccc3S(=O)(=O)CCCNC(=O)[C@@H](N)CCCCN)n2)c1
tgt: PfLysRS (Plasmodium falciparum)
LogIC50 (best-fit value): 1.772

These entries and their values trace back to paper PMC11189516.
